src = patent US20240150370A1

- target.of.assay: human TAAR1 receptor (Homo sapiens (Human), UniProt Q96RJ0)
- Sequence (Q96RJ0 whole entry): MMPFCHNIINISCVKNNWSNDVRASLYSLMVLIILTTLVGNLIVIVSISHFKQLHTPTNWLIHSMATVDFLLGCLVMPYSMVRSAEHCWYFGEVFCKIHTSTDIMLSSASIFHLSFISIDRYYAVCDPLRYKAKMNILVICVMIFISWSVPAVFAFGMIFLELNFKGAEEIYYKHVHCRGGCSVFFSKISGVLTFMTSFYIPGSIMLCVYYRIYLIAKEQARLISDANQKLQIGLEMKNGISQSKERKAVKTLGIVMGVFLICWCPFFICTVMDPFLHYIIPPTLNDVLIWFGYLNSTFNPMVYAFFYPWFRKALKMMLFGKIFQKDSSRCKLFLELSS
- assay.comment: Evaluation of agonist activity on human TAAR1 receptor (cAMP assay)
- Assay type: cell-based
- applied.conditions: CHO, 0.5 h, 100 nM; cAMP in human TAAR1-expressing CHO cells; relative to 100 μM tyramine; read-out: TAAR1 agonist activity at each concentration (%)
Where a name gives a salt, the structure may show the parent alone.
readout: activation at 0.1 µM (%)
Please reply with the bare figure in % and do not write the unit itself.

>  <molecule>
C[C@H]1Oc2cc(C(F)(F)F)cnc2[C@@H]1CN

>  <target.of.assay>
human TAAR1 receptor (Homo sapiens (Human), UniProt Q96RJ0)

>  <readout>
activation at 0.1 µM

>  <measured.number>
1

$$$$
>  <molecule>
C=CCNC[C@H]1c2ncccc2O[C@@H]1C

>  <target.of.assay>
human TAAR1 receptor (Homo sapiens (Human), UniProt Q96RJ0)

>  <readout>
activation at 0.1 µM

>  <measured.number>
0

$$$$
>  <molecule>
C[C@H]1Oc2cc(F)cnc2[C@@H]1CN [Example 8, dihydrochloride]

>  <target.of.assay>
human TAAR1 receptor (Homo sapiens (Human), UniProt Q96RJ0)

>  <readout>
activation at 0.1 µM

>  <measured.number>
24

$$$$
>  <molecule>
Cc1ccc(-c2ccnc3c2CCCC3CN)cc1 (racemic) [Example 89, dihydrochloride]

>  <target.of.assay>
human TAAR1 receptor (Homo sapiens (Human), UniProt Q96RJ0)

>  <readout>
activation at 0.1 µM

>  <measured.number>
0

$$$$
>  <molecule>
Cc1ccc2c(n1)C(CN)CS2 (stereo not drawn)

>  <target.of.assay>
human TAAR1 receptor (Homo sapiens (Human), UniProt Q96RJ0)

>  <readout>
activation at 0.1 µM

>  <measured.number>
20

$$$$

Q: Any idea what activation at 0.1 µM was measured for Cc1ccc2c(n1)C(CN)C1(CC1)O2 (racemic) [Example 90, dihydrochloride] ?
A: 54

Q: And then Cc1ccc2c(n1)[C@H](CN)C[C@@H](C)O2 , what is it?
A: 29

Q: And then C[C@@H]1Sc2cccnc2[C@@H]1CN (racemic) , what is it?
A: 6

Q: And then NC[C@@H]1c2nc(F)ccc2OC12CC2 (single isomer, unassigned) [Example 102, dihydrobromide] , what is it?
A: 1

Q: And then C[C@H]1[C@H](CN)c2ncccc2O[C@@H]1C (racemic) , what is it?
A: 3

Q: And then NC[C@H]1CSc2cccnc21 (single isomer, unassigned) [Example 41, dihydrochloride] , what is it?
A: 12

Q: And then CC(C)[C@H]1Oc2cccnc2[C@@H]1CN (racemic) , what is it?
A: 0

---

- target.of.assay: human TAAR1 receptor (Homo sapiens (Human), UniProt Q96RJ0)
- assay.comment: Evaluation of agonist activity on human TAAR1 receptor (cAMP assay)
- Type: cell-based
- applied.conditions: CHO, 0.5 h, 100 nM; cAMP in human TAAR1-expressing CHO cells; relative to 100 μM tyramine; read-out: TAAR1 agonist activity at each concentration (%)
Where a name gives a salt, the structure may show the parent alone.
Consider the following compounds and their measured activation at 0.1 µM readings.
Please reply with the bare figure in % and do not write the unit itself.

Please review the following examples before continuing.
>  <compound>
Cc1ccnc2c1O[C@H](C)[C@H]2CN [Example 34, dihydrochloride]

>  <units.text>
%

>  <measured.number>
10

$$$$
>  <compound>
CC[C@@H]1C[C@@H](CN)c2ncccc2O1 (racemic)

>  <units.text>
%

>  <measured.number>
2

$$$$

Now consider a different compound.
Q: Item: C[C@@H]1C[C@@H](CN)c2ncccc2S1 (racemic) Test system: human TAAR1 receptor (Homo sapiens (Human), UniProt Q96RJ0) Read-out: activation at 0.1 µM Value: ?
A: 10
